Values from patent US20230203146A1

Target: T1, FLAG-tagged mouse Ang2 (mouse, UniProt O35608 19-496)
T1 construct: N-terminally FLAG-tagged, conditioned medium of HEK293T cells; also called mAng2; FLAG-mAng2
T1 sequence: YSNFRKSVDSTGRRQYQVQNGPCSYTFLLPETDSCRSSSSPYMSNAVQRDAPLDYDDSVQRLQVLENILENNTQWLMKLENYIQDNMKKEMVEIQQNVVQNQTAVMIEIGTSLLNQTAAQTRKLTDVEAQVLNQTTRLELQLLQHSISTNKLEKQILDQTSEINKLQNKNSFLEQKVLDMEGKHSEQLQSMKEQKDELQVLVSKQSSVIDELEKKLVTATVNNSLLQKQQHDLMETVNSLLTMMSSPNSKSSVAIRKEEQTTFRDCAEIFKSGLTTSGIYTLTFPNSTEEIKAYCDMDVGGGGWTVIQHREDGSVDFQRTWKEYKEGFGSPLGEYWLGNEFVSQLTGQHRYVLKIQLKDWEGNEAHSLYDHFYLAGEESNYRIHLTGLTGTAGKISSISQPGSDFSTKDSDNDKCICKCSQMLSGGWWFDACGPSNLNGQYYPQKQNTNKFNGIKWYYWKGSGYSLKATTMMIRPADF
Assay: competition ELISA: FLAG-mAng2 binding to coated mTie2-Fc
Below, each entry is listed alongside its reported IC50.
Reply numerically in nM, unit not repeated.

Would you please look over these solved cases?
binder: VHH 00027 (VHH, not shown: small tags and cut ends, Variant of 28D10 carrying C50S/S53N and Q108L) VHH: EVQLVESGGGLVQAGGSLRLSCAASGFTLDDYAIGWFRQAPGKEREGVSSIRDNDGSTYYADSVKGRFTISSDNDKNTVYLQMNSLKPEDTAVYYCAAVPAGRLRFGEQWYPLYEYDAWGQGTLVTVSS
resultValue: 1.98
--
binder: VHH 00042 (VHH, not shown: small tags and cut ends) VHH: EVQLVESGGGLVQPGGSLRLSCAASGFTLDDYAIGWFRQAPGKEREGVSSIRDNDGSTYYADSVKGRFTISSDNSKNTVYLQMNSLRPEDTAVYYCAAVPAGRLRFGEQWYPLYEYDAWGQGTLVTVSS
resultValue: 1.91
--
binder: VHH 28D10 (VHH, not shown: small tags and cut ends, Parental llama VHH; also called 028D10) VHH: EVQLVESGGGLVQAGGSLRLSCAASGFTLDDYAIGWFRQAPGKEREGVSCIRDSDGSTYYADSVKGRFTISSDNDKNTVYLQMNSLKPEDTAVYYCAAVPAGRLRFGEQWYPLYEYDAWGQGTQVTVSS
resultValue: 5.7
--
binder: VHH 37F02 (VHH, not shown: small tags and cut ends, Parental llama VHH; also called 037F02) VHH: EVQLVESGGGLVQPGGSLRLSCAASGFALDYYAIGWFRQAPGKEREGVSCISSSDGITYYVDSVKGRFTISRDNAKNTVYLQMNSLKPEDTAVYYCATDSGGYIDYDCMGLGYDYWGQGTQVTVSS
resultValue: 0.11
--
binder: VHH 00921 (VHH, not shown: small tags and cut ends) VHH: EVQLVESGGGLVQPGGSLRLSCAASGFTFDDYALGWFRQAPGKEREGVSCIRCSGGSTYYADSVKGRFTISSDNSKNTVYLQMNSLRPEDTAVYYCAASIVPRSKLEPYEYDAWGQGTLVTVSS
resultValue: 27
--
binder: VHH 00925 (VHH, not shown: small tags and cut ends) VHH: DVQLVESGGGLVQPGGSLRLSCAASGFTFDDYALGWFRQAPGKEREGVSCIRCSGGSTYYADSVKGRFTISSDNSKNTVYLQMNSLRPEDTAVYYCAASIVPRSKLEPYEYDAWGQGTLVTVSS
resultValue: 28.4

# query: IC50 of entry VHH 00044 (VHH, not shown: small tags and cut ends) VHH: EVQLVESGGGLVQPGGSLRLSCAASGFALDYYAIGWFRQAPGKEREGVSCISSSDGITYYVDSVKGRFTISRDNSKNTVYLQMNSLRPEDTAVYYCATDSGGYIDYDCMGLGYDYWGQGTLVTVSS
0.091

What value of IC50 has been reported for the following binder? VHH 00049 (VHH, not shown: small tags and cut ends) VHH: EVQLVESGGGLVQPGGSLRLSCAASGFTFDDYALGWFRQAAGKEREGVSCIRCSDGSTYYADSVKGRFTISSDNSKNTVYLQMNSLRPEDTAVYYCAASIVPRSKLEPYEYDAWGQGTLVTVSS
20.3
